# testTarget: T1, His-tagged human CD40 (h-CD40-his) recombinant protein (human, UniProt P25942 21-193)
# T1 construct: range 21-193; Bought from Acrobiosystems; also called Human CD40-his; not shown: His tag
# T1 sequence (P25942 21-193 limits assumed): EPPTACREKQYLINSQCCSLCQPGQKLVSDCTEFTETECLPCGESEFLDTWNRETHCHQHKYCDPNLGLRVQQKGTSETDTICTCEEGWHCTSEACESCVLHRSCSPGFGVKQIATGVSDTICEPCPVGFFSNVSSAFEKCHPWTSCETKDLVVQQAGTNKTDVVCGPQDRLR
# assayExplanation: Biacore X100, antibody captured by anti-human antibody on CM5 chip, CD40 antigen as analyte, 1:1 model
# From the text: Human antibody captured antibody was covalently coupled to CM5 biosensor chip of Biacore instrument (Biacore X100, GE) according to the method described in the description of Human Antibody Capture Kit (Cat. BR-1008-39, GE), thereby capturing a certain amount of chimeric or humanized antibodies to be tested based on affinity. […]
Exercise: for every item that follows, state its recorded Kd.
One number for each entry, in nM.

State recorded Kd for all listed binders.
1. human-mouse chimeric antibody 9E5-C (antibody, V domains shown, Variable regions of murine 9E5 ligated to the constant region of human antibody IgG1; made in HEK293 cells) VH: QVQLQQPGADLVKPGASVKMSCKASGYILTTYWITWVKQRPGQGLEWIGDIHPGSGSTKYNEKFKSKATLTVDTSSSTAYMQLTRLSSEDSAVYYCARRDYWGQGTTLTVSS VL: DVLMTQSPLSLPVSLGDQASISCRSSQNIVNSQGNTYLEWYLQKPGESPKLLIYKVTNRFSGVPDRFSGSGSGTDFTLKISRVEAEDLGVYYCFQASLVPWTFGGGTKLEIK
2. human-mouse chimeric antibody 2H6-C (antibody, V domains shown, Variable regions of murine 2H6 ligated to the constant region of human antibody IgG1; made in HEK293 cells) VH: QVQLQQSGAELVRPGTSVKVSCKASGYAFSDYLIEWAKQRPGQGLEWIGVINPGSGGSNYNEKIKDRATLTADKSSSTAYMQLSSLTSEDSAVYFCARGGGGFTYWGQGTLVTVSA VL: EIQLTQTTSSLSASLGDRVTISCRASQDISNYLNWYQQKPDGTIKLLLNFASRLHSGVPSRFSGSGSGTDFFLTISNLEQDDIATYFCQQGSTLPWTFGGGTKLEIK

Result string:
[2.68, 3.98]

Please go through the list and note Kd for each binder.
1. humanized anti-CD40 antibody hu2H6 (H1b heavy chain and L1c light chain) (antibody, human IgG1, kappa, V domains shown, the suffix -11 is not explained; Human IgG1/kappa; also called Hu2H6-11) VH: QVQLVQSGAEVKKPGSSVKVSCKASGYAFSDYLIEWVRQAPGQGLEWMGVINPGSGGSNYNEKIKDRVTLTADKSTSTAYMELSSLRSEDTAVYYCARGGGGFTYWGQGTLVTVSS VL: DIQLTQSPSSLSASVGDRVTITCRASQDISNYLNWYQQKPGKTIKLLLNFASRLHSGVPSRFSGSGSGTDFTFTISSLQPEDIATYYCQQGSTLPWTFGGGTKVEIKR
2. humanized anti-CD40 antibody hu9E5 (H1c heavy chain and L1a light chain) (antibody, human IgG1, kappa, V domains shown, the suffix -25 is not explained; Human IgG1/kappa; also called Hu9E5-25) VH: QVQLVQSGAEVKKPGASVKVSCKASGYILTTYWITWVRQAPGQGLEWMGDIHPGSGSTKYNEKFKSRVTLTVDTSISTAYMELSRLRSEDTAVYYCARRDYWGQGTTVTVSS VL: DIVMTQSPLSLPVTPGEPASISCRSSQNIVNSQGNTYLEWYLQKPGQSPQLLIYKVTNRFSGVPDRFSGSGSGTDFTLKISRVEAEDVGVYYCFQASLVPWTFGGGTKVEIKR

Result string:
1: 11.2; 2: 5.3
